Test system: OVCAR-4 ovarian
Assay: NCI-60 one-dose screen, 48 h (100 = growth as untreated, 0 = no growth, -100 = all killed)
Conditions: 10 µM unless noted
About 83,000 compounds went through this panel and 20% of them were active in at least one assay; those are over-represented in the sample as a whole.
Hi! Just check whether growth is below 40%. Below gives 1, equal or above gives 0.

Look over these answered cases.
In [3]: df
Out[3]:
                                 smiles_str  assigned_class
0  O=C(COc1ccc(/C=C2\Oc3ccccc3C2=O)cc1)Nc1nc2ccccc2s1               0
1  COc1cc(/C=C/C(=O)c2c(C)nc3ccccc3c2C)ccc1OCCCN1CCN(C(=O)c2ccco2)CC1               1
2  COc1ccc(NC(=O)c2nc(-c3cc(OC)c(OC)c(OC)c3)n(-c3cccc4ccccc34)n2)cc1OC               0

Then this compound:
Q: Just wondering, is growth of COc1ccc(-c2nc3ccc4[nH]ncc4c3c3c2CCCC3)cc1B(O)O below 40%?
Ans: 0

###

Test system: KM12 colon
Assay: NCI-60 one-dose screen, 48 h (100 = growth as untreated, 0 = no growth, -100 = all killed)
Conditions: 10 µM unless noted
Compounds without any hit were thinned out: in the full panel of roughly 83,000, 20% have a hit.
Hi there, I'd appreciate the recorded growth for every entry that follows.
Give bare numbers, in %.

Example entries and their recorded answers appear below.
compound	quantitative-readout
COc1cc(C2CC(c3ccc(Nc4ccnc5cc(Cl)ccc45)cc3)=NN2C=O)cc(OC)c1OC (stereo not given)	68
C=C1C(=O)O[C@H]2[C@H]1CC/C(COC(=O)C(=O)c1cn(C)c3ccc(OC)cc13)=C\CC[C@@]1(C)O[C@@H]21	-65
COc1ccc(OC)c2c1[nH]c(=O)c1c3ncccc3cn21	32.5
CCOC(CN=Cc1cc(C)c2[nH]c3ccccc3c2c1C)OCC	106
O=C(Nc1ccc(Cl)cc1)Nc1ccc(Cl)c(C(F)(F)F)c1	3

Required: growth, one value per compound below.
1. CCN(CC)CCn1nc2c3c(cccc3c1=O)-c1ccccc1-2
2. Cc1nc2ccccc2c(/C=C/c2ccc(Cl)cc2)c1C(=O)/C=C/c1ccc(F)cc1
3. NC[C@H](O)c1ccc(O)c(O)c1
4. C=C1C(=O)O[C@H]2[C@H]1CC/C(CNC(=O)/C=C/c1ccc(Cl)cc1Cl)=C\CC[C@@]1(C)O[C@@H]21

Ans:
34
21.2
103
20

Required: growth, one value per compound below.
1. Clc1cc(Cl)cc(Nc2ccc3cc(OCCCN4CCOCC4)ccc3n2)c1
2. COC(=O)[C@]12CC[C@@H](C)[C@H](C)[C@@H]1C1=CC[C@@H]3[C@@]4(C)C(C=O)=C[C@@](C)(COC(=O)c5ccco5)[C@@H]4C(=O)C[C@@]3(C)[C@]1(C)CC2
3. O=C(COc1ccc(/C=C2\Oc3ccccc3C2=O)cc1)c1ccc(Cl)cc1
4. COc1ccc2c(c1)C(=O)/C(=C/c1ccc(OCC(=O)Nc3nccs3)cc1)O2
5. CC(=O)c1nc(Nc2ccc(C)cc2)sc1C
6. COC(=O)[C@H](CSC)N(C)C(=O)[C@@H]1CSSC[C@@H](NC(=O)c2nc3ccccc3cc2O)C(=O)NCC(=O)N1C
7. O=c1[nH][n+](-c2ccc(Cl)cc2)no1

Ans:
1. 8.59
2. 23.1
3. 98.5
4. 21.3
5. 98.6
6. 50.6
7. 31.3
